# ASSAYED TARGET: NAMPT (Homo sapiens (Human))
# ASSAY COMMENT: Biochemical Inhibition Assay (NAMPT enzymatic reaction, NMN quantified by mass spectrometry)
# SETTINGS: 33 nM recombinant His-tagged NAMPT, 1 μM NAM, 30 min at rt
pIC50: −log10 of the molar value.
QUANTITY NAME: pIC50

{"MOLECULE": "O=C(NCc1ncc(S(=O)(=O)c2cccc(C(F)(F)F)c2)cn1)c1cc2ccncc2o1 [Example 81]", "pIC50": 7.91}
{"MOLECULE": "Nc1ncc2c(n1)CN(C(=O)NCc1ccc(S(=O)(=O)c3cc(F)cc(F)c3)cn1)C2 [Example 86]", "pIC50": 6.45}

(1) O=C(NCc1ccc([S+]([O-])c2cccc(C(F)(F)F)c2)cn1)N1Cc2ccncc2C1 (stereo not shown) [Example 120]
(2) O=C(NCc1ccc(S(=O)(=O)C2CCNCC2)cn1)c1cc2ccncc2o1 [Example 26]
Qu. Which has the higher pIC50, 1 or 2 ? Select an item and report its label.
Ans. 1
(1: 7.93, 2: 6.69)

----------
# ASSAYED TARGET: NAMPT (Homo sapiens (Human), UniProt P43490)
# Sequence (P43490 whole entry): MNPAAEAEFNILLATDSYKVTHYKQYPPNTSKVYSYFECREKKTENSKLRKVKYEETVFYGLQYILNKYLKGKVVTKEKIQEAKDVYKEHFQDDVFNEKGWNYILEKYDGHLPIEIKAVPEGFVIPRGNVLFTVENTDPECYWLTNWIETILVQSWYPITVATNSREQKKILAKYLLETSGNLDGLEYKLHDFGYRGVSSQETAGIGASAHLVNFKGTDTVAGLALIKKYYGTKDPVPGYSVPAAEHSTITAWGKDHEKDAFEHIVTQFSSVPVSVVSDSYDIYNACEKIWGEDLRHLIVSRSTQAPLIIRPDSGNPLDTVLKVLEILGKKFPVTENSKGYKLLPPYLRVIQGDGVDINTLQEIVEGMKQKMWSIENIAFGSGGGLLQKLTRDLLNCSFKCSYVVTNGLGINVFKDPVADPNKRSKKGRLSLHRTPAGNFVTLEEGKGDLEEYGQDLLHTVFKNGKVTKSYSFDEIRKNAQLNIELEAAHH
# ASSAY COMMENT: Biochemical Inhibition Assay (NAMPT enzymatic reaction, NMN quantified by mass spectrometry)
# SETTINGS: 33 nM recombinant His-tagged NAMPT, 1 μM NAM, 30 min at rt
QUANTITY NAME: IC50 (nM)

Completed entries (count: 2):
{"COMPOUND": "O=C(NCc1ccc(S(=O)(=O)c2cncc(C(F)(F)F)c2)cn1)c1ccc2nccn2c1", "UNITS SYMBOL": "nM", "MEASURED NUMBER": 60.8}
{"COMPOUND": "O=C(NCc1ccc(S(=O)(=O)c2cccc(F)c2)cn1)N1Cc2ccncc2C1", "UNITS SYMBOL": "nM", "MEASURED NUMBER": 11.1}

(A) O=C(NCc1ccc(S(=O)(=O)C2CCN(C3CCOC3)CC2)cn1)c1cc2ccncc2o1 (centres unmarked)
(B) CS(=O)(=O)c1cccc(S(=O)(=O)c2ccc(CNC(=O)c3cc4ccncc4o3)nc2)c1
Qu. Field: entry with larger IC50 (options A / B ). In your reply, give the label of the chosen option.
Ans. A
(A: 73 nM, B: 13 nM)

----------
# ASSAYED TARGET: NAMPT (Homo sapiens (Human))
# ASSAY COMMENT: Biochemical Inhibition Assay (NAMPT enzymatic reaction, NMN quantified by mass spectrometry)
# SETTINGS: 33 nM recombinant His-tagged NAMPT, 1 μM NAM, 30 min at rt
QUANTITY NAME: IC50 (nM)

{"COMPOUND": "O=C(NCc1ccc(S(=O)(=O)C2CCN(C3CCOCC3)CC2)cn1)N1Cc2ccncc2C1 [Example 119]", "IC50 (nM)": 37.5}
{"COMPOUND": "N#Cc1cccc(S(=O)(=O)c2ccc(CNC(=O)N3Cc4ccncc4C3)nc2)c1 [Example 158]", "IC50 (nM)": 156}

(A) COc1cccc(S(=O)(=O)c2ccc(CNC(=O)c3cnc4[nH]ncc4c3)nc2)c1 [Example 34]
(B) O=C(NCc1ccc(S(=O)(=O)C2CCN(CC(F)(F)F)CC2)cn1)c1cc2cnccc2[nH]1 [Example 166]
(C) O=C(NCc1ccc([S+]([O-])c2cc(F)cc(F)c2)cn1)c1ccc2nccn2c1 (racemic) [Example 14]
(D) O=C(NCc1ccc([S+]([O-])c2cccc(OC(F)(F)F)c2)cn1)N1Cc2ccncc2C1 (racemic) [Example 89]
(E) O=C(NCc1ccc(S(=O)(=O)C2CCN(C3CCOCC3)CC2)cn1)c1cnc2[nH]ncc2c1 [Example 162]
Qu. Rank entries according to their IC50, from the largest number down. Rank the items, then write their labels in that order.
Ans. E, B, A, C, D
(E: 1830 nM, B: 224 nM, A: 59.9 nM, C: 36.5 nM, D: 8 nM)

(P) N#Cc1cccc(S(=O)(=O)c2ccc(CNC(=O)c3cc4ccncc4o3)nc2)c1 [Example 151]
(Q) CC(C)CN1CCC([S+]([O-])c2ccc(CNC(=O)c3ccc4nccn4c3)nc2)CC1 (stereo not shown) [Example 172]
(R) COc1cccc(S(=O)(=O)c2ccc(CNC(=O)c3cnc4nccn4c3)nc2)c1 [Example 33]
(S) COc1ccc(S(=O)(=O)c2ccc(CNC(=O)c3ccc4nccn4c3)nc2)cc1OC [Example 65]
Qu. Place the items in sequence of falling IC50. Answer with the labels in sequence, matching the requested order.
Ans. Q, P, S, R

(a) O=C(NCc1ccc(S(=O)(=O)C2CCNCC2)cn1)c1ccc2nccn2c1 [Example 27]
(b) O=C(NCc1ccc(S(=O)(=O)c2ccccc2)cn1)c1cnc2nccn2c1 [Example 185]
Qu. Hello, I am sorting some records. Could you say if a or b has the smaller IC50 value? Your answer should be the label attached to the chosen record.
Ans. b
(b: 20.2 nM, a: 572 nM)

(A) CCS(=O)(=O)c1cccc(S(=O)(=O)c2ccc(CNC(=O)c3ccc4nccn4c3)nc2)c1 [Example 96]
(B) O=C(NCc1ccc(S(=O)(=O)N2CCN(C3COC3)CC2)cn1)c1cc2ccncc2o1 [Example 141]
Qu. Hey, which is lower on measured IC50, A or B ? Reply with the label of the item you choose.
Ans. A
